Target: Prostaglandin G/H synthase 2 (Homo sapiens) (UniProt P35354)
Sequence (whole entry): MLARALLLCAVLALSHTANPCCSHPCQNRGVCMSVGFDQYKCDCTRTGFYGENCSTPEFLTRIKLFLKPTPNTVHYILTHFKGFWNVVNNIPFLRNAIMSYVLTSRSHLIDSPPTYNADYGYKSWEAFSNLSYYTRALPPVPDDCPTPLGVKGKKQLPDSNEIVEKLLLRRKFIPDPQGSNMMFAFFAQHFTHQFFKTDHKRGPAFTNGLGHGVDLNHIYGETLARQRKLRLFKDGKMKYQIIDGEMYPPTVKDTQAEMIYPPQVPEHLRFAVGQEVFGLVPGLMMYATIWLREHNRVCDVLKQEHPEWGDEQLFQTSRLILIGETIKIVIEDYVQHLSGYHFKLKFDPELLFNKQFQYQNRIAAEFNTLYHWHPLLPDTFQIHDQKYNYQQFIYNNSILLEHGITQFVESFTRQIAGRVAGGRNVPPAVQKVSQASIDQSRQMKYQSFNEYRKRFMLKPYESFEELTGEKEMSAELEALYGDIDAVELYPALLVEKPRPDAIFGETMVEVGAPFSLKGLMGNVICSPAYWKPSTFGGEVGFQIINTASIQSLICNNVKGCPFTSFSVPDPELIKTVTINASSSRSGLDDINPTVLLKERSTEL
Experiment: Ratio of compound IC50 to celecoxib IC50 for Inhibition of COX2 (unknown origin)
-log(RatioIC50) below -1 gives N; -log(RatioIC50) at or above it gives Y.

GIVEN_SMILES: CCCC/C(=C(\c1ccccc1)c1ccc(NS(C)(=O)=O)cc1)c1ccccc1
ASSIGNED_CATEGORY: Y

GIVEN_SMILES: CC(C)Oc1ccc(-c2cccc(/C(=C\c3ccc(S(C)(=O)=O)cc3)C(=O)O)c2)cc1
ASSIGNED_CATEGORY: N

GIVEN_SMILES: CC/C(=C(\c1ccccc1)c1ccc(NS(C)(=O)=O)cc1)c1ccccc1
ASSIGNED_CATEGORY: N

GIVEN_SMILES: CCCCC(=C(c1ccccc1)c1cc(C(C)(C)C)c(O)c(C(C)(C)C)c1)c1ccc(S(C)(=O)=O)cc1
ASSIGNED_CATEGORY: Y

GIVEN_SMILES: CCC(=C(c1ccccc1)c1ccccc1)c1ccc(S(C)(=O)=O)cc1
ASSIGNED_CATEGORY: N

GIVEN_SMILES: CS(=O)(=O)Nc1ccc(/C(=C(\c2ccccc2)C2CCCCC2)c2ccccc2)cc1
ASSIGNED_CATEGORY: N

GIVEN_SMILES: CCCCC(=C(c1ccccc1)c1cc(C(C)(C)C)c(C(C)=O)c(C(C)(C)C)c1)c1ccc(S(C)(=O)=O)cc1
ASSIGNED_CATEGORY: N

GIVEN_SMILES: CCCCC(=C(c1ccccc1)c1ccccc1)c1ccc(S(C)(=O)=O)cc1
ASSIGNED_CATEGORY: Y

GIVEN_SMILES: CS(=O)(=O)c1ccc(/C=C(/C(=O)O)c2cccc(-c3ccc(F)cc3F)c2)cc1
ASSIGNED_CATEGORY: N
